Source of measurements: patent US20210355194A1

- System: T1, Acro SARS-CoV-2 (COVID-19) S1 protein (SARS-CoV-2, UniProt P0DTC2 16-685)
- T1 construct: also called SARS-CoV-2 S1
- Protocol Text: SPR
Each record here notes measured log10 Kd.
Log10 applied to Kd; unit prior to transform: nM.

These recorded examples may help you get a feel for the data.
• variant 6-52 (Fc fusion) VHH: EVQLVESGGGLVQPGGSLRLSCAASGDTYGSYWMGWFRQAPGKEREVVAAITSGGSTVYADSVKGRFTISADNSKNTAYLQMNSLKPEDTAVYYCARVDSRFDYWGQGTLVTVSS = 1.49
• variant 5-59 (Fc fusion) VHH: EVQLVESGGGLVQPGGSLRLSCAASGLTFSLYRMCWFRQAPGKEREEVSCISNIDGSTYYADSVKGRFTISADNSKNTAYLQMNSLKPEDTAVYYCAADLLGDSDYEPSSGFGWGQGTLVTVSS = 2.05
• variant 5-55 (Fc fusion) VHH: EVQLVESGGGLVQPGGSLRLSCAASGIDVNRNAMGWFRQAPGKEREFVAAITWSGGWRYYADSVKGRFTISADNSKNTAYLQMNSLKPEDTAVYYCATTFGDAGIPDQYDFGWGQGTLVTVSS = 1.80
• variant 6-31 (Fc fusion) VHH: EVQLVESGGGLVQPGGSLRLSCAASGDTFSANRMGWFRQAPGKEREFVASITWSSANTYYADSVKGRFTISADNSKNTAYLQMNSLKPEDTAVYYCATFNWNDEGFDFWGQGTLVTVSS = 1.60
• variant 5-42 (Fc fusion) VHH: EVQLVESGGGLVQPGGSLRLSCAASGFTPDDYAMGWFRQAPGKEREFVASIGYSGRSNSYNYYADSVKGRFTISADNSKNTAYLQMNSLKPEDTAVYYCAIAHGSSTYNWGQGTLVTVSS = 2.06
• variant 6-6 (Fc fusion) VHH: EVQLVESGGGLVQPGGSLRLSCAASGTTLDYYAMGWFRQAPGKERELVAAISWSGGSTAYADSVKGRFTISADNSKNTAYLQMNSLKPEDTAVYYCAREDYYDSSGYSWGQGTLVTVSS = 0.81
• variant 6-90 (Fc fusion) VHH: EVQLVESGGGLVQPGGSLRLSCAASGFPFSIWPMGWFRQAPGKEREFVAAVRWSSTYYADSVKGRFTISADNSKNTAYLQMNSLKPEDTAVYYCATGECDGGSCSLAYWGQGTLVTVSS = 2.06

Now for another entry.
Ask: Quick one: log10 Kd for variant 5-17 (Fc fusion) VHH: EVQLVESGGGLVQPGGSLRLSCAASGPTFSIYAMGWFRQAPGKEREFVAGIRWSDVYTQYADSVKGRFTISADNSKNTAYLQMNSLKPEDTAVYYCALDIDYRDWGQGTLVTVSS ?
Result: 3.56
